The measurements presented in this section are drawn from PubChem BioAssay AID1918958.

# viability, T/C values compiled below
- Tested on: NCI-H196 complex spheroid viability
- ASSAY NAME: Anticancer human tumor NCI-H196 cell line growth inhibition [LSD1];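 further: spheroids exposed to agents for 7 days before readout; 100% = DMSO vehicle control viability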
- CONDITION DETAILS: second compound 0.316 µM; first compound 0.1 µM; active compounds read low
- Text: Multicellular complex tumor spheroid response to LSD1 Inhibitor Iadademstat in combination with a variety of drugs and investigational agents in selected tumor cell lines The current study was undertaken to assess response to LSD1 inhibitors in combination with standard-of-care drugs and investigational agents in solid tumor complex spheroid models as well as in the K-562 leukemia. […] Compounds. […] If the clinical Cmax for an agent had not been determined, the highest concentration tested was 10 microM. […]
READOUT KIND: viability, T/C (%)

INSERT INTO results (compound, readout_kind, result_value) VALUES
  ('CC1COCCN1c1cc(C2(S(C)(=N)=O)CC2)nc(-c2ccnc3[nH]ccc23)n1 (stereo not given) + NC1CCC(NC2CC2c2ccccc2)CC1', 'viability, T/C', 99.5),
  ('CC1COCCN1c1cc(-c2ccnn2C)c2ccnc(-c3ccn[nH]3)c2n1 (stereo not given) + NC1CCC(NC2CC2c2ccccc2)CC1', 'viability, T/C', 59.8),
  ('CC[C@@]1(O)C(=O)OCc2c1cc1n(c2=O)Cc2cc3c(CN(C)C)c(O)ccc3nc2-1 + NC1CC1c1ccc(-c2cccc(O)c2)cc1', 'viability, T/C', 95.9),
  ('CC(C)CC(NC(=O)CNC(=O)c1cc(Cl)ccc1Cl)B1OC(=O)CC(CC(=O)O)(C(=O)O)O1 (stereo not given) + NC1CC1c1ccc(-c2cccc(O)c2)cc1', 'viability, T/C', 4.26),
  ('O=C(c1cc(Cc2n[nH]c(=O)c3ccccc23)ccc1F)N1CCN(C(=O)C2CC2)CC1 + NC1CC1c1ccc(-c2cccc(O)c2)cc1', 'viability, T/C', 90.3);
